Where do the numbers come from? From a collection of fitness landscapes (doi:10.1016/j.celrep.2020.107928).

B1: Caulobacter ParB omega fusion; a variant is named by its letters at X, in order, B8GW30 (parent)
chain: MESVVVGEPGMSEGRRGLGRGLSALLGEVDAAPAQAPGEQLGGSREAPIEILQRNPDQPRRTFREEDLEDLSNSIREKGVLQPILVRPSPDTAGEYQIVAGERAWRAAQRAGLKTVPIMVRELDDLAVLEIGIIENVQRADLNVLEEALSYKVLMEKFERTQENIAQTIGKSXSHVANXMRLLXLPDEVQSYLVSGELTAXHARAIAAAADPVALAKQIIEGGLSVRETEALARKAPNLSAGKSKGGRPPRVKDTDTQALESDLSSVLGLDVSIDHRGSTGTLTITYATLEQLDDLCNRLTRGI

- Variants of: B1
- test description: one-hybrid fitness for binding NBS DNA (the Noc-binding site; scaled: cognate 1, non-cognate 0); higher = stronger binding
- cond: with NBS DNA site
Over roughly 81,000 sequences, “one-hybrid fitness for binding NBS DNA” has its median near -0.1; the highest 2% begin near 0.36. Only a selection was taken, and the highest values are over-represented in it overall.
reported property: one-hybrid fitness for binding NBS DNA

- QPMY: ≤ 0.2
- QTMN: ≤ 0.2
- RNVT: ≤ 0.2
- RCEV: ≤ 0.2
- EHQL: ≤ 0.2
- AHPF: ≤ 0.2
- RNYV: ≤ 0.2
- PMKT: ≤ 0.2

Problem: State the recorded one-hybrid fitness for binding NBS DNA for this entry: "QRMN"
Result: 0.295

Problem: What do you get for "STVP" ?
Result: ≤ 0.2

Problem: What do you get for "KPTD" ?
Result: ≤ 0.2

Problem: What do you get for "PDHS" ?
Result: ≤ 0.2

Problem: What do you get for "FRVT" ?
Result: ≤ 0.2

Problem: What do you get for "SIIG" ?
Result: ≤ 0.2

Problem: What do you get for "QRMD" ?
Result: 0.26

Problem: What do you get for "RRDV" ?
Result: 0.223
